target: human NaV1.3 channels (Homo sapiens, UniProt Q9NY46); experiment: FRET Assay (Method A), human NaV1.3; conditions: read-out: against Nav1.3 in FRET Assay (Method A)
Sequence (Q9NY46 whole entry): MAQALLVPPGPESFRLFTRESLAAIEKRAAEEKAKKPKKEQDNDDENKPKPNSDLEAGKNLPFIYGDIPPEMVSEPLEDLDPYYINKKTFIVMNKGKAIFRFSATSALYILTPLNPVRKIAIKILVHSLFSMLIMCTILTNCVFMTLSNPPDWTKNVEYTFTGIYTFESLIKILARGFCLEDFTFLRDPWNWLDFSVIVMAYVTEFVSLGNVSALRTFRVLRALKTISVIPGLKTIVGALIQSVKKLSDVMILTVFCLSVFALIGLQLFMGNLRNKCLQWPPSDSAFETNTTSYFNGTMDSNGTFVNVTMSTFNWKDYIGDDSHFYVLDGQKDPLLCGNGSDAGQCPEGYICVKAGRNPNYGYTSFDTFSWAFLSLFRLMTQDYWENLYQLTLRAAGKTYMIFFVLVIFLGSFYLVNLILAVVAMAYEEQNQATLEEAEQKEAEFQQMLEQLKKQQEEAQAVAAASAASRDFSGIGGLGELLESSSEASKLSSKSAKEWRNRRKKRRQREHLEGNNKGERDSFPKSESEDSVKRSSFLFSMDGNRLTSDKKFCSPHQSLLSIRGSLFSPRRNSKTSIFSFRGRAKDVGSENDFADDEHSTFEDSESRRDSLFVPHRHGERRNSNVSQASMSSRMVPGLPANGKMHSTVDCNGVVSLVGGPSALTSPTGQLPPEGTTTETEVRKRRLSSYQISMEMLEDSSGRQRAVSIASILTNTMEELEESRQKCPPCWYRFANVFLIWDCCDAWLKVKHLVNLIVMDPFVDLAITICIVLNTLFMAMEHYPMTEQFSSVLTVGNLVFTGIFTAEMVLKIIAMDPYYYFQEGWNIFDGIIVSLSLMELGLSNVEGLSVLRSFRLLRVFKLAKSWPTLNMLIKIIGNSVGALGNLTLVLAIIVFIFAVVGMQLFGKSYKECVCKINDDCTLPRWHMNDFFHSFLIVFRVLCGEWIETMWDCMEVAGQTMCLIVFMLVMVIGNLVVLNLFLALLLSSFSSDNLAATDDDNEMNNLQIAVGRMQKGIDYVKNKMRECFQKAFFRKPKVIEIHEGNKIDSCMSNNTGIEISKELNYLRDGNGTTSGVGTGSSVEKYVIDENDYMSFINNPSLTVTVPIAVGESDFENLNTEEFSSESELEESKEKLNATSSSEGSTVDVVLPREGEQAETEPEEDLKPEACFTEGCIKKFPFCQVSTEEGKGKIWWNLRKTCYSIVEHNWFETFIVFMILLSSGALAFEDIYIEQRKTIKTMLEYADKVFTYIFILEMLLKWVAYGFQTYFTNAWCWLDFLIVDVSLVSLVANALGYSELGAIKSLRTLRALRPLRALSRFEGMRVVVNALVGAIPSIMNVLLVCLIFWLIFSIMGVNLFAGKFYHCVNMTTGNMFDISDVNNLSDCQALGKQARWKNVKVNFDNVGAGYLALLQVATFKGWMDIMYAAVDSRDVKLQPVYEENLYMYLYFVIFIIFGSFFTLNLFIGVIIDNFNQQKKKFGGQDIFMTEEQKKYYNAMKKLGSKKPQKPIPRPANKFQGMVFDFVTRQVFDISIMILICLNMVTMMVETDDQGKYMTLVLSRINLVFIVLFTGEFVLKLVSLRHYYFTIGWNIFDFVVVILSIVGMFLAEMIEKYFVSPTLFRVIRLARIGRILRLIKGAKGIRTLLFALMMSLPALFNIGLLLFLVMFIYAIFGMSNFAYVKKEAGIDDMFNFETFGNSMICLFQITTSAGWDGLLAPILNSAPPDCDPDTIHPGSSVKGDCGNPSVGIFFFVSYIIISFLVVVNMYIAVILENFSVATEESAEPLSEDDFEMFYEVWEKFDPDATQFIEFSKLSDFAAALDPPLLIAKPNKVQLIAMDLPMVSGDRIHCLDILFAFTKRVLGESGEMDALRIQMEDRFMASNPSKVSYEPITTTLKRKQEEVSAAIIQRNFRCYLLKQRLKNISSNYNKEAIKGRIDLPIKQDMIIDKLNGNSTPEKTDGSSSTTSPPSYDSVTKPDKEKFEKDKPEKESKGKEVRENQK
pIC50: −log10 of the molar value.
readout_type: pIC50

Name the reported pIC50 value associated with the molecule O=c1[nH]ccnc1CN1CCC(COc2ccccc2)CC1 [Example 198 in WO 2003/084948, reference compound]
< 4.52

---

Reported pIC50 values follow for various compounds
biological target: human Nav1.7 channels (Homo sapiens, UniProt Q15858); construct: expressed in transfected cells; host or cells: CHO; test: FRET Assay (Method A), human Nav1.7; type: cell-based; settings: Table 5; method A or B not stated; read-out: IC50 in the Nav1.7 FRET Assay
Sequence (Q15858 whole entry): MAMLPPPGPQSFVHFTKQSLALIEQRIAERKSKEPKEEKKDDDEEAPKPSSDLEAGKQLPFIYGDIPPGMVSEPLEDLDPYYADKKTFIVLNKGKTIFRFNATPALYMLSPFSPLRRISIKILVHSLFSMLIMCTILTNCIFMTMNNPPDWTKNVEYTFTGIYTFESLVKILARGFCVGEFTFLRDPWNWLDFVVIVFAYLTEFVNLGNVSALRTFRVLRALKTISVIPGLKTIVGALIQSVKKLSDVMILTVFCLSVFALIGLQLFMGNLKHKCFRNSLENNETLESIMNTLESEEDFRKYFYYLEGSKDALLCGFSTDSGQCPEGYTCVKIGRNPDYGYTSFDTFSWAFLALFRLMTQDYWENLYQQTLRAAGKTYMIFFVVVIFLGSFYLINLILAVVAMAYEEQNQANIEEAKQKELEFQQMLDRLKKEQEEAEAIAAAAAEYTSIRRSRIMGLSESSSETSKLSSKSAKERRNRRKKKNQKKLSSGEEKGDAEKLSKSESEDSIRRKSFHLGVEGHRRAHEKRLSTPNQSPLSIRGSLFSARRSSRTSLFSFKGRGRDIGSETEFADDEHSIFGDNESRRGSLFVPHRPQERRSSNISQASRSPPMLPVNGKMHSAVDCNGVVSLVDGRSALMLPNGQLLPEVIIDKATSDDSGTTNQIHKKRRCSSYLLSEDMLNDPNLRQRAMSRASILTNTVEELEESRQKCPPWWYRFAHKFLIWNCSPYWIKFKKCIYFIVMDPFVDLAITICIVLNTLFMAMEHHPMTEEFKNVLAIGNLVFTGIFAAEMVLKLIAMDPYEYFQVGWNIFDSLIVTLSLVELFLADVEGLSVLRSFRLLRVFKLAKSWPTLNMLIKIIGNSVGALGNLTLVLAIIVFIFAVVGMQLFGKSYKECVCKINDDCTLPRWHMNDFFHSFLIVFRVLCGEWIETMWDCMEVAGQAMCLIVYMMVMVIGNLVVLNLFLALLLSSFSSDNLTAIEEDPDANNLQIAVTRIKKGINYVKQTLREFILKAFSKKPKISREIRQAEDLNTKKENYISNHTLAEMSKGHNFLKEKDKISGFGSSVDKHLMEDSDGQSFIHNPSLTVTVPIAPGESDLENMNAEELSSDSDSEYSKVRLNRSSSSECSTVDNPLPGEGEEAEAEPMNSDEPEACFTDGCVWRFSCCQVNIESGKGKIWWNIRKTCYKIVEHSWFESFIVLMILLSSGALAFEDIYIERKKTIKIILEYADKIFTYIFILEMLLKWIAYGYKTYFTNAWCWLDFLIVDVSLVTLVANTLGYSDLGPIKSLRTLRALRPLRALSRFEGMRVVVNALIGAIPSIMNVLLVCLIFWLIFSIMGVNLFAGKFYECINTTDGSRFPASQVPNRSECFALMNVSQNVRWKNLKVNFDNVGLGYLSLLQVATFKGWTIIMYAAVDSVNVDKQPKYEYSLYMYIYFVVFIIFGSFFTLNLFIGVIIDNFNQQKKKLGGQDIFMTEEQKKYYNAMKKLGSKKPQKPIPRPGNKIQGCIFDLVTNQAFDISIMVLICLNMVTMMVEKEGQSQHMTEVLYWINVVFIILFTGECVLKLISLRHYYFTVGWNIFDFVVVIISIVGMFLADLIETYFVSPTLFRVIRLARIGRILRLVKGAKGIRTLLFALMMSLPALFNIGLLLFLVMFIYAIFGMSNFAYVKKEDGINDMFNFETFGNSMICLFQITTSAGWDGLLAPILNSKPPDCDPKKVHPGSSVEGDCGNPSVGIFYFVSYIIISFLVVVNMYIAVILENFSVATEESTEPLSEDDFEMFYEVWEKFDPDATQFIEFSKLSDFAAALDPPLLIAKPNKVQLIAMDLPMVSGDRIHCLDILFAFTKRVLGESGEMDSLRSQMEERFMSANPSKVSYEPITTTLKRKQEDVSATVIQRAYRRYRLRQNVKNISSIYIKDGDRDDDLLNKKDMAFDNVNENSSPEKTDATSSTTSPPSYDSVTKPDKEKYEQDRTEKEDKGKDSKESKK
Keep in mind that pIC50 stands for -log10 of concentration in molar terms.

Name the reported pIC50 value associated with the compound O=C(c1cnc2ccccc2c1)N1CCC(Oc2ccc(Cl)cc2)CC1
6.44

Next, consider the following compound.
Name the reported pIC50 value associated with the compound Clc1ccc(OC2CCN(Cc3cnc4ccccc4c3)CC2)cc1
6.33

---

biological target: Human HERG (Homo sapiens, UniProt Q12809)
Sequence (Q12809 whole entry): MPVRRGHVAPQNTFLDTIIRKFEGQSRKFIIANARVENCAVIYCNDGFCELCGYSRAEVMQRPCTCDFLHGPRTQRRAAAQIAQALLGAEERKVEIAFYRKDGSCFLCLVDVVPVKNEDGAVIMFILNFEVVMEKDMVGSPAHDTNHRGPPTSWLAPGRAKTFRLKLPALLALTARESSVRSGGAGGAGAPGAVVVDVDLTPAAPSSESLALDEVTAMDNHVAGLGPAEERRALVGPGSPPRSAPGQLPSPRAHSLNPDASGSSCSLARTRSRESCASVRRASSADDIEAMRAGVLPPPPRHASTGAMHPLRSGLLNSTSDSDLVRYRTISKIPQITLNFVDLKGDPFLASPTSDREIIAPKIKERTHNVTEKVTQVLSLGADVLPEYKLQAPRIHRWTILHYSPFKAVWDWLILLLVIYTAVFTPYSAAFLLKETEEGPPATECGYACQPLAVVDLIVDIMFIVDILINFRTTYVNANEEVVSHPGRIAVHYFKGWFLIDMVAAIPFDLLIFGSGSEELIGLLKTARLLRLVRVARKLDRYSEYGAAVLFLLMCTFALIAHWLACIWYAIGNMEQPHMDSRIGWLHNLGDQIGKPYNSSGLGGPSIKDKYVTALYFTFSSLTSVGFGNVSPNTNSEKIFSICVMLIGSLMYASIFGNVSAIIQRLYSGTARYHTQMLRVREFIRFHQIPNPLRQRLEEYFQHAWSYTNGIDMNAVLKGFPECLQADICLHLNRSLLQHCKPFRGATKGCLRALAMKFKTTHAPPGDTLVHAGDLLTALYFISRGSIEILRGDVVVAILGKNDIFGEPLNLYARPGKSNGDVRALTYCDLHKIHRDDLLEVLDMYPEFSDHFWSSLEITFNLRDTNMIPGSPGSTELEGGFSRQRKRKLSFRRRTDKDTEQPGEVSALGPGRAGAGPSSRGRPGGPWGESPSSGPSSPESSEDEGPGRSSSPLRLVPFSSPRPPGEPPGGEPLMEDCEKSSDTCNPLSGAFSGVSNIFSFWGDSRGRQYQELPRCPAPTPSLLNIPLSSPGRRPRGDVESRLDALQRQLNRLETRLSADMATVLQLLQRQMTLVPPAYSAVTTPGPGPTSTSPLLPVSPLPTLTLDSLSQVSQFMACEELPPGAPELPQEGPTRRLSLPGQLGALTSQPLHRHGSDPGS
readout_type: IC50 (µM)
State just the number; it will be interpreted in µM.

Name the reported IC50 value associated with the compound O=C(c1cnc2ccccc2c1)N1CCC(Oc2ccc(Cl)cc2)CC1
7.91

Next, consider the following compound.
Name the reported IC50 value associated with the compound Clc1ccc(OC2CCN(Cc3cnc4ccccc4c3)CC2)cc1
0.28

---

molecular target: human Nav1.7 channels (Homo sapiens); construct: expressed in transfected cells; host or cells: CHO; assay: FRET Assay (Method A), human Nav1.7; type: cell-based; settings: read-out: against Nav1.7 in FRET Assay (Method A)
readout_type: pIC50
Keep in mind that pIC50 stands for -log10 of concentration in molar terms.

Name the reported pIC50 value associated with the compound O=c1[nH]ccnc1CN1CCC(COc2ccccc2)CC1 [Example 198 in WO 2003/084948, reference compound]
4.82
